System: Lewis lung carcinoma i.m., BDF1 mice, T/C %
Test: NCI In Vivo Anticancer Drug Screen. Data for tumor model Lewis Lung Carcinoma (intramuscular) in B6D2F1 (BDF1) mice
Settings: endpoint: median survival time; dose: 3.12 mg/kg/injection; schedule: Q01DX011 (ip); vehicle: saline; higher = longer survival
Results filed as inconclusive are left out.
reported_endpoint: T/C

Solved cases below.
INSERT INTO assay_data (compound, assayed_target, meas_value) VALUES
  ('CSc1ncnc2nc[nH]c12', 'Lewis lung carcinoma i.m., BDF1 mice, T/C %', '92 % of control'),
  ('COc1ccc([I+]c2ccc(OC)cc2)cc1', 'Lewis lung carcinoma i.m., BDF1 mice, T/C %', '98 % of control'),
  ('COC(=O)[CH](C[N+](=O)[O-])[Hg][Cl] (stereo unspecified)', 'Lewis lung carcinoma i.m., BDF1 mice, T/C %', '107 % of control'),
  ('NC(C(=O)O)C(F)(F)C(=O)O (stereo unspecified)', 'Lewis lung carcinoma i.m., BDF1 mice, T/C %', '109 % of control');

Inquiry: Query: T/C; subject: NC(C(=O)O)C(F)C(=O)O (stereo unspecified)
Reply text: 104 % of control

Inquiry: Query: T/C; subject: "O=[N+]([O-])O.[Ga]"
Reply text: 102 % of control

====

Test system: Lewis lung carcinoma i.m., BDF1 mice, T/C %
Experiment: NCI In Vivo Anticancer Drug Screen. Data for tumor model Lewis Lung Carcinoma (intramuscular) in B6D2F1 (BDF1) mice
Conditions: endpoint: median survival time; dose: 0.5 mg/kg/injection; schedule: Q01DX011 (ip); vehicle: saline; higher = longer survival
Results filed as inconclusive are left out.
reported_endpoint: T/C

Solved cases below.
INSERT INTO assay_data (compound, meas_value) VALUES
  ('CC[C@](O)(C(=O)O)c1cc2n(c(=O)c1CO)Cc1cc3ccccc3nc1-2', '118 % of control'),
  ('COc1c2c([n+](C)c3c(OC)cccc13)OC(C(C)C)C2 (stereo not drawn)', '101 % of control');

Inquiry: Query: T/C; subject: "COc1cc2c(c(OC)c1OC)-c1ccc(OC)c(=O)cc1[C@@H](NC=O)CC2"
Reply text: 116 % of control

Inquiry: Query: T/C; subject: "O=c1[nH]cc(N(CCCl)CCCl)c(=O)[nH]1"
Reply text: 92 % of control

Inquiry: Query: T/C; subject: "CO[C@@]12[C@H](COC(N)=O)C3=C(C(=O)C(C)=C(N)C3=O)N1C[C@@H]1N[C@@H]12"
Reply text: 114 % of control

Inquiry: Query: T/C; subject: "C=CCN1/C(=C/C=C\c2sc3ccccc3[n+]2CC=C)Sc2ccccc21"
Reply text: 89 % of control

Inquiry: Query: T/C; subject: CC(=O)OC1C(=O)C(O)C(C)OC1O[C@@H]1C[C@@]2(C)[C@@H]3CC=C4[C@@H](C[C@H](O)C(=O)C4(C)C)[C@]3(C)C(=O)C[C@]2(C)[C@H]1[C@@](C)(O)C(=O)/C=C/C(C)(C)O (stereo partly drawn)
Reply text: 113 % of control

Inquiry: Query: T/C; subject: "COC(=O)C[C@](O)(CCC(C)(C)O)C(=O)O[C@@H]1C(OC)=C[C@]23CCCN2CCc2cc4c(cc2[C@H]13)OCO4"
Reply text: 114 % of control

The values you see were collected from PubChem BioAssay AID272.
